Molecular target: RBD (SARS-CoV-2 spike) (SARS-CoV-2, UniProt P0DTC2 319-541)
Assay: ELISA
Answer each item with its documented pEC50.
Answers are plain numbers, as −log10 of the molar value.

Some solved entries appear below for comparison.
Just so you know, measured pEC50 for Nb17 (VHH) VHH: HVQLVESGGGLVQAGGSLRLSCAASGSIFSSNAMSWYRQAPGKQRELVASITSGGNADYADSVKGRFTISRDKNTVYPEMSSLKPADTAVYYCHAVGQEASAYAPRAYWGQGTQVTVS came out at 9.01

Just so you know, measured pEC50 for humanized Nb21 (hNb21) (VHH) VHH: QVQLVESGGGLVQPGGSLRLSCAASWFRRAPGKEREFVAYADSVKGRFTISRDNAKNTLYLQMNSLRAEDTAVYYCAAWGQGTLVTVS came out at 8.87

Just so you know, measured pEC50 for Nb64 (VHH) VHH: QVQLVESGGGLVQAGGSLRLSCAVSGRTFSIAGMGWFRQAPGKDREFLGGITWNDGTTWYADSVKGRFTISRDNAKNMLSLRMNSLKPEDTAVYYCAAGPRLGSTPRAYDYWGQGTQVTVS came out at 8.91

Just so you know, measured pEC50 for Nb9 (VHH) VHH: HVQLVESGGGLVQTGGSLRLSCAFSGYTFSTFPTAWFRQAPGKEREFVAGIRWNGGSRDYTEYADFVKGRFTISRDNAKNMIYLQMISLKPEDTALYYCAASHGVVDGTSVNGYRYWGQGTQVTVS came out at 8.56

Just so you know, measured pEC50 for Nb93 (VHH) VHH: EVQLVESGGGLVQPGGSLRLSCAASGFTFSSYAMSWVRQAPGKGREWVAGITPGSGTFYADSVKGRFTISRDNAKNTLSLEINSLKPEDTALYYCAKCRQEFSWDFSSRDPDDFDYWGQGTQVTVS came out at 8.95

Just so you know, measured pEC50 for Nb34 (VHH) VHH: DVQLVESGGGLVQAGGSLRLSCAASGFTFSNYVMYWGRQAPGKGREWVSGIDSDGSDTAYASSVKGRFTISRDNAKNTLYLQMNNLKPEDTALYYCVKSKDPYGSPWTRSEFDDYWGQGTQVTVS came out at 9.28

Just so you know, measured pEC50 for Nb95 (VHH) VHH: QVQLVESGGGLVQAGGSLRLSCAASGRTFSSYSMGWFRQAQGKEREFVATINGNGRDTYYTNSVKGRFTISRDDATNTVYLQMNSLKPEDTAIYYCAADKDVYYGYTSFPNEYEYWGQGTQVTVS came out at 8.42

New cases:
Just so you know, measured pEC50 for Nb105 (VHH) VHH: HVQLVESGGGLVQAGGSLRLSCAVSGRTFSTYGMAWFRQAPGKERDFVATITRSGETTLYADSVKGRFTISRDNAKNTVYLQMNSLKIEDTAVYYCAVRRDSSWGYSRDLFEYDYWGQGTQVTVS came out at 8.77
